The measurements presented in this section are drawn from ChEMBL document CHEMBL3885861.

# Organism: Rattus norvegicus
# assay info: Open TG-GATES - Regimen: Daily Repeat
# Assay type: toxicity, organism-based, Sprague-Dawley
# Parameters: regimen Daily Repeat, gender Male, age 6 weeks
# condition label: in vivo, po, 0 mg/kg, […], tissue Plasma, route gavage, dose level Control, time 7 day
metric name: ALT
Please make sure the unit comes right after the number.

Example entries begin here.
Form: molecule = CCCCC1C(=O)N(c2ccccc2)N(c2ccccc2)C1=O [PHENYLBUTAZONE] ; ALT = 35.6 IU/L

For record O=c1ccc2ccccc2o1 [COUMARIN] the listed ALT is 35.6 IU/L

Form: molecule = Nc1ccc(Cc2ccc(N)cc2)cc1 ; ALT = 37 IU/L

Recorded ALT (molecule COc1ccc([C@@H]2Sc3ccccc3N(CCN(C)C)C(=O)[C@@H]2OC(C)=O)cc1 [DILTIAZEM] ): 45.4 IU/L

Lab note: CC(=O)[C@@]1(O)CC[C@H]2[C@@H]3C=C(Cl)C4=CC(=O)CC[C@]4(C)[C@H]3CC[C@@]21C [CHLORMADINONE] gave ALT of 39.4 IU/L

Further cases:
Per the records, this molecule ( CCO [ALCOHOL] ) has ALT equal to 33.6 IU/L

# ALT of CCCCNC(=O)NS(=O)(=O)c1ccc(C)cc1 [TOLBUTAMIDE] = 43.2 IU/L

Briefly, ALT measured for O=C(O)c1ccccc1Nc1ccccc1 [FENAMIC ACID] : 38 IU/L

Reported ALT ( NS(=O)(=O)c1cc(C(=O)O)c(NCc2ccco2)cc1Cl [FUROSEMIDE] ) = 38.2 IU/L

The reported ALT of the molecule CN(CCOc1ccc(CC2SC(=O)NC2=O)cc1)c1ccccn1.O=C(O)/C=C\C(=O)O (stereo not given) [ROSIGLITAZONE MALEATE] was 33.2 IU/L
